System: 485368-065-R3-J5-PDC spheroids with HUVEC/MSC, viability;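 note: spheroids exposed to agents for seven days before readout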
Test: Anticancer human tumor 485368-065-R3-J5-PDC patient-derived pancreatic carcinoma cell line growth inhibition [RAS]; active = viability on the fitted dose curve at most 10% of control; inactive = the rest
Conditions: second compound 0.003 µM; first compound 0.00949 µM
# valid calls are t = active, f = inactive; nothing else

Exercise: // outcome(item) with item = CC1(C)CCC(Nc2ncc(C(F)(F)F)c(-c3c[nH]c4c(P(C)(C)=O)c(C#N)ccc34)n2)CN1 (centres undefined) + CCn1c(-c2cc(N3CCN(C)CC3)cnc2C(C)OC)c2c3cc(ccc31)-c1csc(n1)CC(NC(=O)C1CC1C)C(=O)N1CCCC(N1)C(=O)OCC(C)(C)C2
Key: f

Exercise: // outcome(item) with item = CCc1c2c(nc3ccc(O)cc13)-c1cc3c(c(=O)n1C2)COC(=O)[C@]3(O)CC + CCn1c(-c2cc(N3CCN(C)CC3)cnc2C(C)OC)c2c3cc(ccc31)-c1csc(n1)CC(NC(=O)C1CC1C)C(=O)N1CCCC(N1)C(=O)OCC(C)(C)C2
Key: t

Exercise: // outcome(item) with item = CC1(C)CCC(Nc2ncc(C(F)(F)F)c(-c3c[nH]c4c(P(C)(C)=O)c(C#N)ccc34)n2)CN1 (centres undefined) + CCn1c(-c2cccnc2C(C)OC)c2c3cc(ccc31)N1CCOC(CC(NC(=O)C(C(C)C)N(C)C(=O)C3(F)CCN(C(=O)C#CC(C)(C)N(C)C)CC3)C(=O)N3CCCC(N3)C(=O)OCC(C)(C)C2)C1
Key: f

Exercise: // outcome(item) with item = CCc1c2c(nc3ccc(O)cc13)-c1cc3c(c(=O)n1C2)COC(=O)[C@]3(O)CC + CCn1c(-c2cccnc2C(C)OC)c2c3cc(ccc31)N1CCOC(CC(NC(=O)C(C(C)C)N(C)C(=O)C3(F)CCN(C(=O)C#CC(C)(C)N(C)C)CC3)C(=O)N3CCCC(N3)C(=O)OCC(C)(C)C2)C1
Key: f
